- measurementNotes: Drug metabolism experiment on prodrug in SD rats: concentration in liver compared with blood
- Assay type: in vivo
- experimentalConditions: male, Sprague-Dawley, rat, liver, po, 3 mg/kg, 24 h, SD rats, oral 3 mg/kg VK-2809; read-out: Ct Liver
measuredProperty: concentration at 24 h
Please append the unit to your numeric answer.

IN: I have this compound here, Cc1cc(OCP(=O)(O)O)cc(C)c1Cc1ccc(O)c(C(C)C)c1 [MB07444, reference compound] , and I need its recorded concentration at 24 h.
OUT: 37 ng/g

====

Quick reference for concentration at 1 h among some compounds
- measurementNotes: Drug metabolism experiment on prodrug in SD rats: concentration in liver compared with blood
- Format: in vivo
- experimentalConditions: male, Sprague-Dawley (SD), rat, plasma (heading prints blood), po, 3 mg/kg, 1 h, SD rats, oral 3 mg/kg Compound 10; read-out: Ct Blood
Expressed in ng/g, but write only the number.

IN: Which concentration at 1 h value belongs to Cc1cc(OC[P@@]2(=O)OCC[C@@H](c3cccc(Cl)c3)O2)cc(C)c1Cc1ccc(O)c2c1CCC2(C)C [Compound 10] ?
OUT: 8.8

IN: Also Cc1cc(OCP(=O)(O)O)cc(C)c1Cc1ccc(O)c2c1CCC2(C)C [Compound 1] ?
OUT: 5.4

====

Reported half-life values for the following compounds.
- measurementNotes: Drug metabolism experiment on prodrug in SD rats: plasma pharmacokinetic parameters
- Assay type: in vivo
- experimentalConditions: male, Sprague-Dawley (SD), rat, plasma, po, 3 mg/kg, oral 3 mg/kg Compound 10
The response must be a number in h with no trailing unit.

INSERT INTO results (compoundstring, testresult) VALUES
  ('Cc1cc(OCP(=O)(O)O)cc(C)c1Cc1ccc(O)c2c1CCC2(C)C', 4.59);

The record that follows has no half-life shown yet.
IN: Reported half-life, compound Cc1cc(OC[P@@]2(=O)OCC[C@@H](c3cccc(Cl)c3)O2)cc(C)c1Cc1ccc(O)c2c1CCC2(C)C : ____
OUT: 1.73

====

- measurementNotes: Drug metabolism experiment on prodrug in SD rats: concentration in liver compared with blood
- Assay type: in vivo
- experimentalConditions: male, Sprague-Dawley, rat, liver/plasma, po, 3 mg/kg, 1 h, SD rats, oral 3 mg/kg VK-2809; read-out: Liver-to-blood ratio
Listed next: entries and their corresponding Kp at 1 h.
// response body must contain only the number

INSERT INTO assay_data (compound, testresult) VALUES
  ('Cc1cc(OC[P@@]2(=O)OCC[C@@H](c3cccc(Cl)c3)O2)cc(C)c1Cc1ccc(O)c(C(C)C)c1 [VK2809, reference compound]', 8.6);

# context switch: different compound, same Kp at 1 h
IN: Request the reported Kp at 1 h associated with Cc1cc(OCP(=O)(O)O)cc(C)c1Cc1ccc(O)c(C(C)C)c1 [MB07444, reference compound]
OUT: 15.9

====

- measurementNotes: Drug metabolism experiment on prodrug in SD rats: plasma pharmacokinetic parameters
- Type: in vivo
- experimentalConditions: male, Sprague-Dawley (SD), rat, plasma, po, 3 mg/kg, oral 3 mg/kg Compound 9
measuredProperty: AUC(0-inf) (ng·h/mL)
Field format: number, assumed ng·h/mL, no unit text.

IN: Reported AUC(0-inf) for Cc1cc(OCP(=O)(O)O)cc(C)c1Cc1ccc(O)c2c1CCC2(C)C : what is it?
OUT: 1350
